Data provenance is patent US20080221021A1.

Target: rCRFR1 (Rattus norvegicus, UniProt P35353)
Construct: expressed in transfected cells
Sequence (P35353 24-415): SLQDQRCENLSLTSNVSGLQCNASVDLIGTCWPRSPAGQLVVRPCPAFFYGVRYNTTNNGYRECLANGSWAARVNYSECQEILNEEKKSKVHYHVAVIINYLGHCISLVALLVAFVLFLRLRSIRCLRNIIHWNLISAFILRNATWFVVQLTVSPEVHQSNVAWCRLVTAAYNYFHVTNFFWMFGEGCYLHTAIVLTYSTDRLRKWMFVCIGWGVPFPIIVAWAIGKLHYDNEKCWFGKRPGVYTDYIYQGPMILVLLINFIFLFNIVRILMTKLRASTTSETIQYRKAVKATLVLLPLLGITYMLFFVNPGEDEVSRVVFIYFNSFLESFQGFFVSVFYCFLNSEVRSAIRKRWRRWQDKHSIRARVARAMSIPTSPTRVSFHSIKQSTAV
Assay: Competition binding scintillation proximity assay, rCRFR1 membranes
Settings: binding analysis, CRFR1 vs CRFR2, in words
Where no end group is shown, it is not given here.

Substance	selectivity for CRFR1
[h/rCRF^1-13]x[Svg^13-29]x[h/rCRF^31-41] (SEEPPISLDLTFHLLRKMIEIEKQEKEKQQAHSNRKLMEII; ends and bridges not checked) [compound 4, chimeric peptide of h/rCRF and Svg domains]	not
[Svg^1-29]x[h/rCRF^31-41] (QGPPISIDLSLELLRKMIEIEKQEKEKQQAHSNRKLMEII; ends and bridges not checked) [compound 7, chimeric peptide of h/rCRF and Svg domains]	not
